System: SK-MEL-2 melanoma
ASSAY_DETAILS: NCI-60 one-dose screen, 48 h (100 = growth as untreated, 0 = no growth, -100 = all killed)
TEST_CONTEXT: 10 µM unless noted
Compounds without any hit were thinned out: in the full panel of roughly 83,000, 20% have a hit.
// Not fulfilled strictly below 80% in growth; Fulfilled otherwise

[[record]]
compound = "N#Cc1c(NC(=O)c2ccc(Br)cc2)sc2c1CCCC2"
classification = "Not fulfilled"

[[record]]
compound = "C[C@@H]1C(=O)N(C[C@H](Cc2ccccc2)NC(=O)OCc2ccccc2)[C@]1(Cc1ccccc1)C(=O)OC(C)(C)C"
classification = "Not fulfilled"

[[record]]
compound = "Cc1ccc(/C=C(\\C#N)n2nnc3cc(Cl)c(Cl)cc32)cc1"
classification = "Not fulfilled"

[[record]]
compound = "CN1CCC(=C2c3ccccc3C=Cc3ccccc32)CC1"
classification = "Fulfilled"

[[record]]
compound = "COC(=O)[C@]12CC[C@@H](C)[C@H](C)[C@@H]1C1=CC[C@@H]3[C@@]4(C)C(C=O)=C[C@@](C)(CO)C4=CC[C@@]3(C)[C@]1(C)CC2"
classification = "Not fulfilled"

[[record]]
compound = "O=C(O)c1ccccc1C(=O)Nc1ccc(Cl)cc1"
classification = "Fulfilled"

[[record]]
compound = "CCOC(=O)c1sc2ccc(NCc3nc[nH]c3C)cc2c1NC(=O)c1cc(OC)c(OC)c(OC)c1"
classification = "Fulfilled"

[[record]]
compound = "COc1ccc(-n2sc(=O)n(Cc3ccc(COC(=O)C(C)c4ccc(CC(C)C)cc4)cc3)c2=O)cc1 (centres undefined)"
classification = "Fulfilled"

[[record]]
compound = "CC(C)OC(=O)NNC(=O)c1ccncc1"
classification = "Fulfilled"

